The measured values listed here are drawn from PubChem BioAssay (EPA / NIEHS).

# target or system: Bile acid receptor (Homo sapiens) (UniProt Q96RI1)
# Sequence (Q96RI1 whole entry, looked up): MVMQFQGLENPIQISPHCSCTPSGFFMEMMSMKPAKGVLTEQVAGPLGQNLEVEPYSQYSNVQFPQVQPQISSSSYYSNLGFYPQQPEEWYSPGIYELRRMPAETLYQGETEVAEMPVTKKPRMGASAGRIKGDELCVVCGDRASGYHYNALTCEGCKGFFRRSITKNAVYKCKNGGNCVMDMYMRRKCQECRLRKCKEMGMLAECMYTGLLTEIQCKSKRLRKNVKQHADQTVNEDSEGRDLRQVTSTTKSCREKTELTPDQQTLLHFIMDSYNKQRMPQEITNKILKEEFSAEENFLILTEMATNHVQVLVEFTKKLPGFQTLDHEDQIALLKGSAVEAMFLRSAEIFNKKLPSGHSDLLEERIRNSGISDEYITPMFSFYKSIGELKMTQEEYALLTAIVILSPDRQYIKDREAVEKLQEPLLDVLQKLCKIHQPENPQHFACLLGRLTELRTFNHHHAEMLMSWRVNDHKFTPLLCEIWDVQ
# protocol summary: OT_FXR_FXRSRC1_0480: Odyssey Thera (OT) 8-hour HEK293T Protein-Complementation Assay for Farnesoid X receptor/SRC-1 Co-activator (AID 2283383)
# Description: OT_FXR_FXRSRC1_0480 is a cell-based assay that uses HEK293T, a human kidney cell line, with measurements taken at 8 hours after chemical dosing in a 384-well plate.OT_FXR_FXRSRC1_0480 is one of one assay component(s) measured or calculated from the OT_FXR_FXRSRC1_0480 assay. […] This assay endpoint, OT_FXR_FXRSRC1_0480, was analyzed in the positive analysis fitting direction relative to DMSO as the negative control and baseline of activity. […]
Inconclusive results are not listed. Activity calls are given as the source filed them. How the source made its calls: active means hit-call score of the fitted dose curve at least 0.9, where 1 is the maximum; inconclusive means response in the unintended direction; inactive means score below 0.9.
readout label: AC50

Look over these answered cases.
> print(dat)
                                   compound      result.value
1  CCCSP(=S)(OCC)Oc1ccc(SC)cc1 (stereo not drawn)  22.8 µM (active)
2      O=C(NC(=O)c1c(F)cccc1F)Nc1ccc(Cl)cc1          inactive
3                         CCCCCCCCCCCCN(C)C          inactive
4                                 C=CCN=C=S          inactive
5          CCOP(=S)(OCC)O/N=C(\C#N)c1ccccc1  32.5 µM (active)
6                O=C(O)COc1cc(Cl)c(Cl)cc1Cl          inactive
7                         O=C(CCl)Nc1ccccc1          inactive

AC50 reading for Cc1cc(Cl)ccc1O : inactive
